- Tested on: BJ
- procedure.details: BJ-TERT fibroblast viability loss – cell-based, RAS-independent, luminescence, dose response (AID 1933)
- Type: functional
- stated.conditions: Homo sapiens
Active and inactive are the calls of the source.
The following molecules are listed with their measured EC50 values.
reported.metric: EC50

INSERT INTO assay_data (smiles_input, reported_metric, test_result) VALUES
  ('O=C(COC(=O)c1ccccc1C(=O)c1ccc(Cl)c([N+](=O)[O-])c1)NC1CC1', 'EC50', '5.11 µM (active)'),
  ('O=[N+]([O-])c1cc(Br)c(Nc2ccccc2)c([N+](=O)[O-])c1', 'EC50', '5.53 µM (inconclusive)'),
  ('COc1cc(NC(=O)CSc2nc3ccccc3n2-c2ccccc2)c(C)cc1[N+](=O)[O-]', 'EC50', '> 150 µM (not active)'),
  ('CCc1ccc(NC(=O)[C@H](Cc2c[nH]c3ccccc23)NC(=O)[C@@H]2Cc3ccccc3CN2)cc1', 'EC50', '> 150 µM (not active)'),
  ('O=C(Nc1ccccn1)c1cc2ccccc2o1', 'EC50', '11.2 µM (active)'),
  ('Cc1cccc(-n2ncc(Cl)c(Cl)c2=O)c1', 'EC50', '1.02 µM (active)');

----------
- study.target: Heat shock factor protein 1 (Mus musculus, UniProt P38532)
- Sequence (P38532 whole entry): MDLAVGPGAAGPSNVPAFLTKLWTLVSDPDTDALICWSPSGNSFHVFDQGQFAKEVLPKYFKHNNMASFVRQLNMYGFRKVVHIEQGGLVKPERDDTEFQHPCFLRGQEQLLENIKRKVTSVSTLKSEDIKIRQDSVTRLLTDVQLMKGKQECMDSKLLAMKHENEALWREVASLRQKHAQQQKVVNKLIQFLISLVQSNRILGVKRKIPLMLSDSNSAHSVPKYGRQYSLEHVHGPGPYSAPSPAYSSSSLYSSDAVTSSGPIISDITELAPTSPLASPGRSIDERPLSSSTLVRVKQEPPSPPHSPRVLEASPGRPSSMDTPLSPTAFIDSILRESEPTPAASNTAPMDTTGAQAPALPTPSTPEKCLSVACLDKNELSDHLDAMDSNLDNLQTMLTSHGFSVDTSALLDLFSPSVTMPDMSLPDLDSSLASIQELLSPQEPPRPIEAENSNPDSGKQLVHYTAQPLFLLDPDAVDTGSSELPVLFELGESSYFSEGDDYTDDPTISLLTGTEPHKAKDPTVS
- procedure.details: decrease of HSF1-responsive luciferase luminescence – cell-based, NIH3T3, dose retest, confirmation (AID 2382);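 further: NIH3T3 fibroblasts with HSF1-driven luciferase reporter stressed by proteasome inhibitor MG132; luminescence from HSF1-driven luciferase expression after 8 hours of MG132 stress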
- Assay type: functional
Activity calls are given as the source filed them.
reported.metric: EC50

INSERT INTO assay_data (smiles_input, test_result) VALUES
  ('Cc1ccc(C(=O)N/C(=C/c2ccco2)C(=O)Nc2cccc(C(=O)O)c2)cc1', '> 195 µM (not active)'),
  ('O=[N+]([O-])c1ccc(N2CCCC2)c2ccncc12', '31.2 µM (active)'),
  ('COC(=O)[C@@H]1Cc2c([nH]c3ccccc23)C(C)(C)N1C(=O)CCl', '4.08 µM (active)'),
  ('CCOc1ccc(-c2cnc3ccccc3n2)cc1', '10 µM (active)'),
  ('CCCc1cc(=O)oc2cc(C)cc(OCC(=O)NCCCn3ccnc3)c12', '> 195 µM (not active)'),
  ('CN(c1ccc2nc3ccccc3c(=O)n2n1)C1CCCCC1', '< 0.16 µM (active)'),
  ('O=[N+]([O-])c1ccc(SCCc2ccncc2)cc1', '> 195 µM (not active)'),
  ('Cc1ccc(NC(=O)c2cc3ccccc3oc2=O)cc1S(=O)(=O)N(C)C', '< 0.16 µM (active)'),
  ('CCOC(=O)c1c(N)sc2c(O)c(Br)ccc12', '> 195 µM (not active)'),
  ('CC(C)Oc1ccc(/C=C(/NC(=O)c2ccccc2)C(=O)NCCC(=O)O)cc1', '> 195 µM (not active)'),
  ('O=C(NC(=S)NCCC1=CCCCC1)c1cncc(Br)c1', '> 195 µM (not active)');

----------
Measured AC50 on Cytochrome P450 2C9 (Homo sapiens, UniProt P11712) follows.
Sequence (P11712 whole entry): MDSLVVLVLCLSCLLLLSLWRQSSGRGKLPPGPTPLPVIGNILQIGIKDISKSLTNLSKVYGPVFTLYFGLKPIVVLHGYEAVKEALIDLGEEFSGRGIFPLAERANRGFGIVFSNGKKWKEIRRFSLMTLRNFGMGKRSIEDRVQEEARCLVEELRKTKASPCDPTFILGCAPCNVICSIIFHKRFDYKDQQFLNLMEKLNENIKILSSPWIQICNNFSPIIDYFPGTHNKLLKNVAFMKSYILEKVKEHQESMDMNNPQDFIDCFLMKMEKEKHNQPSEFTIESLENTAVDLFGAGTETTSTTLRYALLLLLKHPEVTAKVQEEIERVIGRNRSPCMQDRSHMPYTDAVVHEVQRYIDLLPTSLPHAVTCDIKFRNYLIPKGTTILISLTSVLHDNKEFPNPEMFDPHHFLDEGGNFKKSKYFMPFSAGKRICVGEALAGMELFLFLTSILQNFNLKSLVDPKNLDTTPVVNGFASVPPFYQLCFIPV
reported.metric: AC50

INSERT INTO assay_data (smiles_input, test_result) VALUES
  ('O=P(O)(COc1ccccc1)COc1ccccc1', '14100 nM (inconclusive)'),
  ('Cc1ccc(-c2nn3c(C)nnc3c3ccccc23)cc1S(=O)(=O)NCc1ccccc1', '1260 nM (inconclusive)'),
  ('CC(=O)Oc1ccc(C(c2ccc(OC(C)=O)cc2)c2ccccn2)cc1', '15800 nM (inconclusive)'),
  ('CCCCc1nc(O)c(C#N)c2c1CCCC2', '251 nM (inconclusive)'),
  ('N#Cc1cccc(-c2cncnc2NCc2cccs2)c1', '501 nM (inconclusive)'),
  ('COc1ccc(C2(CNC(=O)/C=C/c3ccco3)CCCC2)cc1OC', '10000 nM (inconclusive)'),
  ('CN(C)c1ccc(-c2nc(NCCc3cnc[nH]3)c3ccccc3n2)cc1', '794 nM (inconclusive)'),
  ('Cc1cccc(CNc2ncnc3ccc(-c4ccccc4C#N)cc23)c1', '501 nM (inconclusive)'),
  ('O=C(CCn1c(=O)[nH]c2ccsc2c1=O)Nc1ccc(F)c(F)c1', '2820 nM (inconclusive)'),
  ('Cc1cc(C)n(-c2ccc(Cl)c(C(=O)O)n2)n1', '4470 nM (inconclusive)'),
  ('O=C(Cc1ccccc1)Nc1nc(=O)c2ccccc2s1', '3550 nM (inconclusive)');

----------
- procedure.details: Trypanosoma cruzi growth suppression in host cells – NIH3T3 host cells, beta-gal luminescence, confirmation (AID 2044);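 further: intracellular parasites grown in NIH/3T3 mouse fibroblasts as host cells; luminescent beta-galactosidase reporter signal from transgenic T. cruzi replicating inside host cells; inhibitors lower the luminescence signal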
- Type: functional, cell-based
Activity calls are given as the source filed them.
The following molecules are listed with their measured EC50 values.
reported.metric: EC50

INSERT INTO assay_data (molecule, test_result) VALUES
  ('COc1ccc(CN2CCN(Cc3cccc4nonc34)CC2CCO)c(C)c1C (stereo not drawn)', '403 nM (active)'),
  ('CCCn1c(NC(=O)c2ccc([N+](=O)[O-])o2)nc2ccccc21', '128 nM (active)'),
  ('COc1cc(OC)c(OC)cc1/C=C1\CCC/C(=C\c2cc(OC)c(OC)cc2OC)C1=O', '1510 nM (active)'),
  ('Cc1[nH]c(N=Nc2ccccc2)nc1N=Nc1ccccc1', '1120 nM (active)'),
  ('O=C(Cc1cccs1)N/N=C\c1ccc([N+](=O)[O-])s1', '360 nM (active)'),
  ('Cc1ccc(N/N=C/C=C/c2ccco2)cc1', '3310 nM (active)'),
  ('O=C(CNc1ccc2ccccc2c1)N/N=C/c1ccc([N+](=O)[O-])o1', '< 100 nM (active)'),
  ('O=C(Cn1ncc(Cl)c(Cl)c1=O)N1CCN(Cc2ccccc2)CC1', '2220 nM (active)'),
  ('CNc1c([N+](=O)[O-])nn(-c2ccc3c(c2)OCCO3)[n+]1[O-]', '680 nM (active)'),
  ('Cc1ccc(NC(=O)c2c(C(F)(F)F)nn(C)c2SCc2ccc(Cl)cc2)cc1C', '2840 nM (active)'),
  ('C/C=C/c1ccc(OCC(O)CN(C)Cc2ccc(SC)cc2)c(OC)c1 (stereo not drawn)', '388 nM (active)'),
  ('O=[N+]([O-])c1cc(-c2nnc(C34CC5CC(CC(C5)C3)C4)o2)cc([N+](=O)[O-])c1', '770 nM (active)'),
  ('O=C(O)COc1ccc(/C=C/c2nc3ccc([N+](=O)[O-])cc3s2)cc1', '> 60000 nM (not active)');

----------
- study.target: Fatty acid synthase (Homo sapiens, UniProt P49327)
- Sequence (P49327 whole entry): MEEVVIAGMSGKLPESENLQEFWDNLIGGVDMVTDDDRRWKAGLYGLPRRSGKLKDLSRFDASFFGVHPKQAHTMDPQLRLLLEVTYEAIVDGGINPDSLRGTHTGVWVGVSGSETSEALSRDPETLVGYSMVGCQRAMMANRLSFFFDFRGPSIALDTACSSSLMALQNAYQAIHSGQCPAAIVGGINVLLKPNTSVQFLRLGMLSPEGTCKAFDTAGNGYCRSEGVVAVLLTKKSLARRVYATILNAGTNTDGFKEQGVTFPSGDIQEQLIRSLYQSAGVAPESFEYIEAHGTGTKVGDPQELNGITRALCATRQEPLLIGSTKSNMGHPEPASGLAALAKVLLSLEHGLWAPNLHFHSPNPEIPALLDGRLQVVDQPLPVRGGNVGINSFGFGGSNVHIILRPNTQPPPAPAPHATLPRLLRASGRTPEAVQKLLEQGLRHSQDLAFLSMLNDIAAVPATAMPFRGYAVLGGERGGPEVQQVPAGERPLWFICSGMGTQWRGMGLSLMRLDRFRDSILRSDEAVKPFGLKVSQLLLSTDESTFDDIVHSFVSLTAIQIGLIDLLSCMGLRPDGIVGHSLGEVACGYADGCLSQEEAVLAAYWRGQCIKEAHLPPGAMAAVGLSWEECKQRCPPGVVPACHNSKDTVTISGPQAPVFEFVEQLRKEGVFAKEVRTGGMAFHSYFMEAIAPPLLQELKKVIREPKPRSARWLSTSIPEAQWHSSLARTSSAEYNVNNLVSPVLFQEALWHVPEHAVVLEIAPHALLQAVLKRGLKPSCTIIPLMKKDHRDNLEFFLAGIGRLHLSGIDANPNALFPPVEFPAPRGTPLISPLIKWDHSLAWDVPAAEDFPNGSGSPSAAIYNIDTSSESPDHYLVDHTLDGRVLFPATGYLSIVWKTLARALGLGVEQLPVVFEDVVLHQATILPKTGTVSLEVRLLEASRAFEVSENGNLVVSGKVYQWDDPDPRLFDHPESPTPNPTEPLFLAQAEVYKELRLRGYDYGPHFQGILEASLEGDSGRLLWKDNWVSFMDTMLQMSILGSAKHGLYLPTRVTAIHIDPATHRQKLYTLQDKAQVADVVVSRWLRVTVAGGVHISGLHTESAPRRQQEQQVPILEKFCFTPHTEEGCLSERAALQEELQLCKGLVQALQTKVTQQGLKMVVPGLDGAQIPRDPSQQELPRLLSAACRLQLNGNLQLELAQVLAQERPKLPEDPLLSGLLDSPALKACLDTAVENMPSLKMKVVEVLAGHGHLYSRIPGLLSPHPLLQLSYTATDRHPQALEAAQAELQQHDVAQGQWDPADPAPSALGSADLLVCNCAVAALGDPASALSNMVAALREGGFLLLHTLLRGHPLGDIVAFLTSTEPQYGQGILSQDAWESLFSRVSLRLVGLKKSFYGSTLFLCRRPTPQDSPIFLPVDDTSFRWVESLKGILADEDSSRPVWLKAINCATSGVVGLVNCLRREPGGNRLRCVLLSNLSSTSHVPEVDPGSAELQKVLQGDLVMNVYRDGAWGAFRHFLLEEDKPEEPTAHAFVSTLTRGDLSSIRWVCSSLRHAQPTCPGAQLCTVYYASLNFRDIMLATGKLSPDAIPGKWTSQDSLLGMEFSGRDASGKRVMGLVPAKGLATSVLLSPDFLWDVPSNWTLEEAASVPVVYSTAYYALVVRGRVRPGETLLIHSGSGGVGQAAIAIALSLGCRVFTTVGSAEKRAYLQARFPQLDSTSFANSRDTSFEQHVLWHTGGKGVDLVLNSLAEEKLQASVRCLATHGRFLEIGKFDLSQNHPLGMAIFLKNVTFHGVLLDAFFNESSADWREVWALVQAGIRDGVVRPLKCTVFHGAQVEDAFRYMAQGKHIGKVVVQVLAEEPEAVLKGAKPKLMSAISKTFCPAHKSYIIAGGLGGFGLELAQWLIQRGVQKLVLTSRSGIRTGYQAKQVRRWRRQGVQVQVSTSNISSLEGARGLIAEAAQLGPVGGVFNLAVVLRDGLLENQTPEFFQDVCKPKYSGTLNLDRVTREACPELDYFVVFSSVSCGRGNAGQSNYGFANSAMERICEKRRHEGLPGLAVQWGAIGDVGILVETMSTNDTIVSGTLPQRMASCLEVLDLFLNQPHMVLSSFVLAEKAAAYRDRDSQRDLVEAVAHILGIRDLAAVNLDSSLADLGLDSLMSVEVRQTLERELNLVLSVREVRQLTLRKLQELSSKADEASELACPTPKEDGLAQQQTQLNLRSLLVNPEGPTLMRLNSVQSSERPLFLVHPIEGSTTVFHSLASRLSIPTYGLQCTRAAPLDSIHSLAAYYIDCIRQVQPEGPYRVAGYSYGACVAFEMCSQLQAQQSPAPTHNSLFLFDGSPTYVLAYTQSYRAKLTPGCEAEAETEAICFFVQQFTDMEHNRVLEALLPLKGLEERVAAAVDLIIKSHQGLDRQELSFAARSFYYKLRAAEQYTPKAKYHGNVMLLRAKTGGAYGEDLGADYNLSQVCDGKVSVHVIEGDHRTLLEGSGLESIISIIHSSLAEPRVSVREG
- procedure.details: inhibition of human FAS-TE enzyme activity – biochemical, endpoint fluorescence intensity, uHTS hits, dose response (AID 624327);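 further: fluorescence from hydrolysis of an O-methyl fluorescein acyl ester substrate by the enzyme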
- Type: functional
The source made the active and inactive calls.
reported.metric: IC50

INSERT INTO measurements (compound, test_result) VALUES
  ('CC1CCc2nc(NC(=O)CN3CCN(c4ccc(F)cc4)CC3)sc2C1 (centres undefined)', '2.04 µM (active)'),
  ('O=C(N/C(=C/C=C/c1ccccc1)C(=O)N1CCCCC1)c1ccc([N+](=O)[O-])cc1', '0.295 µM (active)'),
  ('Cc1ccc(NC(=O)c2cc([N+](=O)[O-])ccc2N2CCOCC2)cc1C', '4.24 µM (active)'),
  ('O=C(OCc1cccc(C(F)(F)F)c1)c1cc([N+](=O)[O-])ccc1N1CCOCC1', '7.84 µM (active)');

----------
- study.target: Zinc finger protein mex-5 (Caenorhabditis elegans, UniProt Q9XUB2)
- Sequence (Q9XUB2 whole entry): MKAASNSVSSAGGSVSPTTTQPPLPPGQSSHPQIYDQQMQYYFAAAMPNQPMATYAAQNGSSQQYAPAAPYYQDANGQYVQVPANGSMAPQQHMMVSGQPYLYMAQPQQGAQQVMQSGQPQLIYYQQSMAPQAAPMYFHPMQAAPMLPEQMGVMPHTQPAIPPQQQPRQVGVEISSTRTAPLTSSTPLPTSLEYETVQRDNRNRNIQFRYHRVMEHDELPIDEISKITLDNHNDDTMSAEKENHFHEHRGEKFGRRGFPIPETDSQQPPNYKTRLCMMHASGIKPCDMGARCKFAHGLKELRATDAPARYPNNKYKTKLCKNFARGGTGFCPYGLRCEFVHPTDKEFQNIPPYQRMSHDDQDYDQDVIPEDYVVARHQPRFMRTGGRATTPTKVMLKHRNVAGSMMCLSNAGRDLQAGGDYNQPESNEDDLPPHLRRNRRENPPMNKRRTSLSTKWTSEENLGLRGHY
- procedure.details: potency of MEX-5 RNA-binding blockers – biochemical, C. elegans, fluorescence polarization, dose response (AID 1960)
Activity calls are given as the source filed them.
The following compounds are listed with their measured EC50 values.
reported.metric: EC50

INSERT INTO results (compound, reported_metric, test_result) VALUES
  ('Nc1cc(C(=O)O)c(N)c2c1C(=O)c1ccccc1C2=O', 'EC50', '2.39 µM (active)'),
  ('Cc1ccc(C(=O)C2=C(O)C(=O)N(Cc3ccco3)C2c2cccc(Br)c2)o1 (stereo not given)', 'EC50', '35.6 µM (active)'),
  ('CN(C)c1ccc(/C=C/C(=O)c2cccc(Br)c2)cc1', 'EC50', '> 300 µM (inconclusive)'),
  ('O=C(Nc1ccccc1)c1nn(-c2ccccc2)c(=O)cc1C(F)(F)F', 'EC50', '> 300 µM (not active)'),
  ('CSc1sccc1/C=C(/C#N)C(=O)c1ccco1', 'EC50', '> 300 µM (not active)'),
  ('CN(C)CCN(C)Cc1c2ccccc2c(CN(C)CCN(C)C)c2ccccc12', 'EC50', '10.2 µM (active)'),
  ('Fc1ccc(-c2nc3c(Cl)cc(C(F)(F)F)cn3c2Cl)cc1', 'EC50', '37.1 µM (active)'),
  ('CCOC(=O)c1c(-n2c(C)cc(C=C3C(=O)NC(=O)NC3=O)c2C)sc2c1CCCC2', 'EC50', '> 300 µM (inconclusive)'),
  ('Cc1cc(/C=C2\C(=O)NC(=O)N(c3ccccc3F)C2=O)c(C)n1-c1cc(C(=O)O)cc(C(=O)O)c1', 'EC50', '> 300 µM (not active)'),
  ('COc1ccc2c(c1)S/C(=C\C(=O)c1ccncc1)N2C', 'EC50', '> 300 µM (not active)');
